- Study System: T1, human CLEC-1A expressed on the cell membrane (human, UniProt Q8NC01 1-280)
- T1 construct: Endogenous on human U266 myeloma cells, on monocyte-derived TGFb-DC and macrophages; on CHO cells after transduction with a Clec-1 expressing lentivirus; also called U266 CLEC1; CLEC-1A on U266 cells
- T1 sequence: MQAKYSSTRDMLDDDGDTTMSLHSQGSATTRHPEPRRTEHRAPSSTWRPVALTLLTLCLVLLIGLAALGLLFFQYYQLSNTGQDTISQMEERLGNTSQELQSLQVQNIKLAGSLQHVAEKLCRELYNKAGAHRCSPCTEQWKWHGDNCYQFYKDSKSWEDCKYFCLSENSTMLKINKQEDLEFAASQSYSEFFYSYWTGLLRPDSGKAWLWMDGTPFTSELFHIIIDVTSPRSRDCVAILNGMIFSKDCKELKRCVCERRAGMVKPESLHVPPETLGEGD
- Assay Info: flow cytometry on U266 cells; printed as ED50, read-out Mean
Assay Metric: EC50 (µg/mL)
Entry rule: numbers only, all in µg/mL.

Input: Report EC50 for murine anti-hCLEC1 antibody 15E3-G3 (antibody, V domains shown, Mouse hybridoma antibody) VH: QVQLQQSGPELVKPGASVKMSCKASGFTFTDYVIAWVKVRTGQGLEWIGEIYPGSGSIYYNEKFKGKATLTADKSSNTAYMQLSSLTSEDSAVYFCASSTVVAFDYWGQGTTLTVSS VL: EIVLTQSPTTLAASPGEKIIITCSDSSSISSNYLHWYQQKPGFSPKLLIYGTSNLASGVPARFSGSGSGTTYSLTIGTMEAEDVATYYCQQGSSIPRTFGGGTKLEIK
Output: 0.59
